Recorded GBA EC50 Ratio ([35S]GTPγS binding) (EC50 compound/EC50 PYY(3-36)) for the following binders
molecular target: human Y2 receptor (human) (UniProt P49146); experiment: cell-based or functional assay
Sequence (P49146 whole entry): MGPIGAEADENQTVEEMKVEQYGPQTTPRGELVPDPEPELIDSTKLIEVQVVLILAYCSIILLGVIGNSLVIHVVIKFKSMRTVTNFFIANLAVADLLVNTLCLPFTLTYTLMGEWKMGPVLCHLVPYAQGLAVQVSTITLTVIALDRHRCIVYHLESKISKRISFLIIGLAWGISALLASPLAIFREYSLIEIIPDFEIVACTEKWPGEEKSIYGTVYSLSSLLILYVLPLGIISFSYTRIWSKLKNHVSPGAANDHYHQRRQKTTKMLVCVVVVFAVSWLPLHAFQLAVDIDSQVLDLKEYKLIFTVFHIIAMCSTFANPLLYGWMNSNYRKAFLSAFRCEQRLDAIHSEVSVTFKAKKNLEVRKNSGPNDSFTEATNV
Non-standard residues stand in square brackets, D forms with d. *: point of attachment. X10 = Tetrahydro‑2H‑pyran‑4‑yl‑carbamoyl, O=C(NC1CCOCC1)*; 4Pal = N[C@@H](Cc1ccncc1)C(=O)O; Cha = N[C@@H](CC1CCCCC1)C(=O)O; Isonicotinoyl = O=C(c1ccncc1)*; Aib = CC(C)(N)C(=O)O

Consider the reported GBA EC50 Ratio ([35S]GTPγS binding) (EC50 compound/EC50 PYY(3-36)) for these binders:
Look up GBA EC50 Ratio ([35S]GTPγS binding) (EC50 compound/EC50 PYY(3-36)) for this binder: Ac-E[dP]R[4Pal][Cha][Aib]NK[Aib]TRQR[Cha]-NH2 (SMILES CC(=O)N[C@@H](CCC(=O)O)C(=O)N1CCC[C@@H]1C(=O)N[C@@H](CCCNC(=N)N)C(=O)N[C@@H](Cc1ccncc1)C(=O)N[C@@H](CC1CCCCC1)C(=O)NC(C)(C)C(=O)N[C@@H](CC(N)=O)C(=O)N[C@@H](CCCCN)C(=O)NC(C)(C)C(=O)N[C@H](C(=O)N[C@@H](CCCNC(=N)N)C(=O)N[C@@H](CCC(N)=O)C(=O)N[C@@H](CCCNC(=N)N)C(=O)N[C@@H](CC1CCCCC1)C(N)=O)[C@@H](C)O) [Ac-[Glu23, D-Pro24, Pya(4)26, Cha27,36, Aib28,31, Lys30]-PYY(23-36)] 1.9

Now give it for X10-E[dP]R[4Pal][Cha][Aib]NK[Aib]TRQR[Cha]-NH2 (SMILES C[C@@H](O)[C@H](NC(=O)C(C)(C)NC(=O)[C@H](CCCCN)NC(=O)[C@H](CC(N)=O)NC(=O)C(C)(C)NC(=O)[C@H](CC1CCCCC1)NC(=O)[C@H](Cc1ccncc1)NC(=O)[C@H](CCCNC(=N)N)NC(=O)[C@H]1CCCN1C(=O)[C@H](CCC(=O)O)NC(=O)NC1CCOCC1)C(=O)N[C@@H](CCCNC(=N)N)C(=O)N[C@@H](CCC(N)=O)C(=O)N[C@@H](CCCNC(=N)N)C(=O)N[C@@H](CC1CCCCC1)C(N)=O) [Tetrahydro-2H-pyran-4-yl-carbamoyl-[Glu23, D-Pro24, Pya(4)26, Cha27,36, Aib28,31, Lys30]-PYY(23-36)] too. 1.6

Follow-up item: Ac-S[dP]R[4Pal][Cha][Aib]NR[Aib]TRQR[Cha]-NH2 (SMILES CC(=O)N[C@@H](CO)C(=O)N1CCC[C@@H]1C(=O)N[C@@H](CCCNC(=N)N)C(=O)N[C@@H](Cc1ccncc1)C(=O)N[C@@H](CC1CCCCC1)C(=O)NC(C)(C)C(=O)N[C@@H](CC(N)=O)C(=O)N[C@@H](CCCNC(=N)N)C(=O)NC(C)(C)C(=O)N[C@H](C(=O)N[C@@H](CCCNC(=N)N)C(=O)N[C@@H](CCC(N)=O)C(=O)N[C@@H](CCCNC(=N)N)C(=O)N[C@@H](CC1CCCCC1)C(N)=O)[C@@H](C)O) [Ac-[D-Pro24, Pya(4)26, Cha27,36, Aib28,31, Arg30]-PYY(23-36)] 1.8

Now take the following binder into account.
Reported GBA EC50 Ratio ([35S]GTPγS binding) (EC50 compound/EC50 PYY(3-36)) for Isonicotinoyl-E[dP]R[4Pal][Cha][Aib]NK[Aib]TRQR[Cha]-NH2 (SMILES C[C@@H](O)[C@H](NC(=O)C(C)(C)NC(=O)[C@H](CCCCN)NC(=O)[C@H](CC(N)=O)NC(=O)C(C)(C)NC(=O)[C@H](CC1CCCCC1)NC(=O)[C@H](Cc1ccncc1)NC(=O)[C@H](CCCNC(=N)N)NC(=O)[C@H]1CCCN1C(=O)[C@H](CCC(=O)O)NC(=O)c1ccncc1)C(=O)N[C@@H](CCCNC(=N)N)C(=O)N[C@@H](CCC(N)=O)C(=O)N[C@@H](CCCNC(=N)N)C(=O)N[C@@H](CC1CCCCC1)C(N)=O) [4-Pyridinecarbonyl-[Glu23, D-Pro24, Pya(4)26, Cha27,36, Aib28,31, Lys30]-PYY(23-36)] : what is it? 1.8
